- System: BC
- Protocol text: Cytotoxicity against BC cells.
- Assay type: functional, cell-based
- Measurement context: Homo sapiens
Threshold check on IC50: strictly below 7 µM is class 1; on or above 7 µM is class 0.

Below, 3 molecules whose answers are already recorded.
INSERT INTO measurements (molecule, assigned_category) VALUES
  ('CC1CCC2C(CC3(CCCCCCCC4(CC5C(=O)OC6OC7(C)CCC8C(C)CCC5C68OO7)C(=O)OC5OC6(C)CCC7C(C)CCC4C57OO6)C(=O)OC4OC5(C)CCC6C(C)CCC3C46OO5)C(=O)OC3OC4(C)CCC1C32OO4 (stereo unspecified)', 'class 0'),
  ('CC1CCC2C(CC3(Cc4ccc(F)cc4)C(=O)OC4OC5(C)CCC6C(C)CCC3C46OO5)C(=O)OC3OC4(C)CCC1C32OO4 (stereo unspecified)', 'class 0'),
  ('CCCCC[C@@H]1C(=O)O[C@@H]2O[C@]3(C)CC[C@H]4[C@H](C)CC[C@@H]1[C@@]24OO3', 'class 0');

Determine if CCCCCC[C@@H]1C(=O)O[C@@H]2O[C@]3(C)CC[C@H]4[C@H](C)CC[C@@H]1[C@@]24OO3 shows IC50 strictly lower than 7 µM.
class 1

Determine if C[C@@H]1CC[C@H]2[C@H](CCCCCCC[C@H]3C(=O)O[C@@H]4O[C@@]5(C)CC[C@H]6[C@H](C)CC[C@@H]3[C@@]46OO5)C(=O)O[C@@H]3O[C@@]4(C)CC[C@@H]1[C@]32OO4 shows IC50 strictly lower than 7 µM.
class 1

Determine if C[C@@H]1CC[C@H]2[C@H](Cc3ccc(F)cc3)C(=O)O[C@@H]3O[C@]4(C)CC[C@@H]1[C@]32OO4 shows IC50 strictly lower than 7 µM.
class 0
